# TEST DESCRIPTION: Single dose escalation and multiple dosing pharmacokinetic study of LipoCol Forte
# TEST PARAMETERS: human, plasma, oral, 4 LipoCol Forte capsules, AUC0–12, healthy subjects, fed, single dose four LipoCol Forte capsules; mean ± SD, n = 14
ASSAY METRIC: AUC(0-t) (ng·h/mL)

(a) CC[C@H](C)C(=O)O[C@H]1C[C@@H](C)C=C2C=C[C@H](C)[C@H](CC[C@@H](O)C[C@@H](O)CC(=O)O)[C@H]21 [Lovastatin acid, lovastatin acid]
(b) CC[C@H](C)C(=O)O[C@H]1C[C@@H](C)C=C2C=C[C@H](C)[C@H](CC[C@@H]3C[C@@H](O)CC(=O)O3)[C@H]21 [Pure lovastatin, lovastatin, reference compound]
# min-compare on AUC(0-t) between a and b Provide the label of your selected option as the answer.
b
